- System: RPMI-8226
- assay comment: NCI tumour cell line growth inhibition, 48 h
Calls of active or inactive are those of the source. Cut-off read from the data, not from the text of the source: active = GI50 up to about 1.1 µM and inactive = higher. Peptide text beside a SMILES is read from it.
readout kind: GI50

{"columns": ["compound", "target or test system", "GI50"],
 "data": [
  ["O=C(/C=C/c1ccccc1)OCC1=C[C@@H](O)[C@@H]2C=CO[C@@H](OC3OC(CO)C(O)C(O)C3O)[C@H]12 (some centres undefined)", "RPMI-8226", "> 100 µM (inactive)"]
]}

Quick one: GI50 for "CC(C)(C)OC(=O)N1C(C2=COc3ccccc3O2)=COc2ccccc21" ?
13.9 µM (inactive)

Ok, now "CN(C)Cc1cc(C(C)(C)C)cc(CN(C)C)c1O"
> 100 µM (inactive)

Next compound: COc1cc2oc3c(c(=O)c2c(O)c1/C=C/C(C)C)C(C=C(C)C)Oc1cc(O)ccc1-3 (centres undefined)
14.7 µM (inactive)

Can you check "COc1ccc(/C(CCl)=C(\Nc2ccccc2)c2ccc(OC)c(OC)c2)cc1OC" next?
68.2 µM (inactive)

Now give it for "O=c1c2nn3c(=O)n(-c4ccccc4)c(=O)c3nn2c(=O)n1-c1ccccc1" too.
> 100 µM (inactive)

# repeat for O=C(CC(=O)N1N=C(N(c2ccccc2)c2ccccc2)CC1c1ccccc1)Nc1cccc(Cl)c1 (centres undefined)
> 100 µM (inactive)

Now try "CCOc1ccc(/C(C=O)=C(\Cl)c2ccc(OC)c(OC)c2)cc1" .
> 100 µM (inactive)

Same lookup for CCC(C)C(NC(=O)C(NC(=O)C(CC(N)=O)NC(=O)CN)C(C)O)C(=O)NC(C(=O)NC(C)C(=O)NC(C(=O)NC(CCC(=O)O)C(=O)NC(CC(C)C)C(=O)NC(CC(=O)O)C(=O)NC(C(=O)NC(Cc1ccc(O)cc1)C(=O)N1CCCC1C(=O)O)C(C)O)C(C)C)C(C)C (centres undefined) (H-GNTIVAVELDTYP-OH; configuration not given here) , please.
> 50 µM (inactive)

====

- System: NCI-H460
- assay comment: NCI tumour cell line growth inhibition, 48 h
The source made the active and inactive calls. Cut-off read from the data, not from the text of the source: active = GI50 up to about 1.1 µM and inactive = higher.
Respond with a class label; see active, inactive

{"columns": ["compound", "label value"],
 "data": [
  ["O=c1c2nn3c(=O)n(-c4ccccc4)c(=O)c3nn2c(=O)n1-c1ccccc1", "inactive"]
]}

Call for entry "CCOc1ccc(NCc2cc(OC)c(OC)c(OC)c2)cc1" :
active

Proceed to "O=C(CNc1ccccc1C(=O)O)Nn1cnc2ccc(S(=O)(=O)Nc3ccccc3C(=O)O)cc2c1=O"
inactive

====

- Test system: NCI/ADR-RES
- assay comment: NCI tumour cell line growth inhibition, 48 h
Activity calls are given as the source filed them. Cut-off read from the data, not from the text of the source: active = GI50 up to about 1.1 µM and inactive = higher.
Your response should consist of one outcome taken from active, inactive

Here's what some known entries look like.
{"columns": ["molecule", "label value"],
 "data": [
  ["O=C(O)Cc1ccc(Nc2nc3cc(C(F)(F)F)ccc3nc2C(=O)O)cc1", "inactive"],
  ["Cc1ccc2c(O)cc(-c3ccsc3)nc2n1", "inactive"],
  ["COC(=O)[C@@H]1C[C@@]23CCCN4CC[C@@]5(c6cccc(OC)c6N(C=O)[C@]15CC2)[C@@H]43", "inactive"],
  ["C[n+]1c2ccccc2c(N=[N+]=[N-])c2ccccc21", "inactive"]
]}

How did this test come out for "O=C1CCCC2=C1CC1=C(CCCC1=O)N2c1ccccc1" ?
inactive

How about "CN(C)CCCc1c2ccccc2nc2ccc(Cl)cc12" ?
inactive

Next entry: "O=C1NC(=O)[C@@]2(CC[C@@H](O)C2)c2ccncc21"
inactive

Entry CCCC[P+](CCCC)(CCCC)C(C(=O)OC)C(C(=O)OC)=C1SC(C(=O)OC)=C(C(=O)OC)S1 (stereo not drawn) please
inactive

Next: CC(C)(C)[Si](C)(C)OCC1OC(n2ccc(=O)[nH]c2=O)C(O[Si](C)(C)C(C)(C)C)[C@@]12O[C@H]2C(N)=O (stereo partly drawn)
inactive
